The reported measurements were obtained from patent US8076346B2.

Assay protocol: in vivo
Reported conditions: Beagle, dog, Beagle dogs, oral 30 mg/kg vs IV 15 mg/kg, analyte MMMDPB, read-out: F (absolute bioavailability)
Measurement kind: bioavailability (%)
The answer is to be given in %; state only the numeric part.

Query: Which measured bioavailability value corresponds to COCN1C(=O)NC(=O)C(c2ccccc2)(c2ccccc2)C1=O [MMMDPB, reference compound] ?
Reply: 107

====

Assay protocol: Pharmacokinetics of DPB after oral DPB or NaDPB and IV NaDPB in Sprague-Dawley rats
Type: in vivo
Reported conditions: rat, in vivo; Sprague-Dawley rats, female, oral 150 mg/kg, analyte DPB; read-out: F (absolute bioavailability)
Measurement kind: bioavailability (%)
The answer is to be given in %; state only the numeric part.

Query: Which measured bioavailability value corresponds to O=C1NC(=O)C(c2ccccc2)(c2ccccc2)C(=O)N1.[Na] [NaDPB, sodium 5,5-diphenyl barbiturate] ?
Reply: 87.7

====

Assay protocol: Brain concentration of DPB after oral DPB or NaDPB and IV NaDPB in Sprague-Dawley rats
Format: in vivo
Reported conditions: rat, in vivo, female, IV infusion 150 mg/kg, 24 hr
Measurement kind: concentration at 24 h (ng/g)
The answer is to be given in ng/g; state only the numeric part.

Query: Which measured concentration at 24 h value corresponds to O=C1NC(=O)C(c2ccccc2)(c2ccccc2)C(=O)N1.[Na] [NaDPB, sodium 5,5-diphenyl barbiturate] ?
Reply: 40700

====

Assay protocol: Pharmacokinetics of DPB after oral DPB or NaDPB and IV NaDPB in Sprague-Dawley rats
Type: in vivo
Reported conditions: rat, in vivo; Sprague-Dawley rats, male, oral 150 mg/kg, analyte DPB in plasma
Measurement kind: half-life (h)
The answer is to be given in h; state only the numeric part.

Query: Which measured half-life value corresponds to O=C1NC(=O)C(c2ccccc2)(c2ccccc2)C(=O)N1 [DPB, 5,5-diphenyl barbituric acid, reference compound] ?
Reply: 6.6

Query: One more molecule: O=C1NC(=O)C(c2ccccc2)(c2ccccc2)C(=O)N1.[Na] [NaDPB, sodium 5,5-diphenyl barbiturate]
Reply: 17.6

====

Quick reference for AUC(0-t) among some compounds
Assay protocol: Pharmacokinetics of DPB after oral DPB or NaDPB and IV NaDPB in Beagle dogs
Type: in vivo
Reported conditions: Beagle, dog, in vivo, po, 75 mg/kg, oral 75 mg/kg, analyte DPB, read-out: AUC0-24
Description: In accordance with the present invention, pharmacokinetic parameters were calculated using standard non-compartmental methods, as implemented in WinNonlin™ 4.0.1. […] The mean, SD and CV (%) were used to calculate the AUC0-t (μg·h/mL), C. […] AUC0-t was calculated using the linear trapezoidal rule, which employs an approximate integration formula. The area of each trapezoid was calculated, and the sum of all the areas of all the trapezoids yielded an estimate of the true area under the curve. […]
The answer is to be given in µg·h/mL; state only the numeric part.

INSERT INTO measurements (compound, measurement_kind, numeric_result) VALUES
  ('O=C1NC(=O)C(c2ccccc2)(c2ccccc2)C(=O)N1.[Na] [NaDPB, sodium 5,5-diphenyl barbiturate]', 'AUC(0-t)', 883);

Here's the next entry for you.
Query: Which measured AUC(0-t) value corresponds to O=C1NC(=O)C(c2ccccc2)(c2ccccc2)C(=O)N1 [DPB, 5,5-diphenyl barbituric acid, reference compound] ?
Reply: 231

====

Assay protocol: Pharmacokinetics of DPB after oral DPB or NaDPB and IV NaDPB in Sprague-Dawley rats
Assay type: in vivo
Reported conditions: rat, in vivo; Sprague-Dawley rats, male, IV infusion 150 mg/kg, analyte DPB in plasma
Measurement kind: half-life (min)
The answer is to be given in min; state only the numeric part.

Query: Which measured half-life value corresponds to O=C1NC(=O)C(c2ccccc2)(c2ccccc2)C(=O)N1.[Na] [NaDPB, sodium 5,5-diphenyl barbiturate] ?
Reply: 1450

====

Assay protocol: Pharmacokinetics of DPB after oral DPB or NaDPB and IV NaDPB in Sprague-Dawley rats
Type: in vivo
Reported conditions: rat, in vivo; Sprague-Dawley rats, male, IV infusion 150 mg/kg, analyte DPB in plasma
Measurement kind: Cmax (µg/mL)
The answer is to be given in µg/mL; state only the numeric part.

Query: Which measured Cmax value corresponds to O=C1NC(=O)C(c2ccccc2)(c2ccccc2)C(=O)N1.[Na] [NaDPB, sodium 5,5-diphenyl barbiturate] ?
Reply: 184
